Tested on: Micrococcus luteus
procedure.text: Antimicrobial activity against Micrococcus luteus
Type: functional
measured.parameter: MIC (µg/mL)

smiles.data	recorded.value
C=C1CC[C@@H]2[C@](C)(CO)[C@H](O)CC[C@@]2(C)[C@@H]1C/C=C1/C(=O)OC[C@H]1OC(=O)CCC	32

(A) C=C1CC[C@@H]2[C@](C)(CO)[C@H](O)CC[C@@]2(C)[C@@H]1C/C=C1/C(=O)OC[C@H]1OC(=O)CCCCCCCCCCC
(B) C=C1CC[C@@H]2[C@](C)(CO)[C@H](O)CC[C@@]2(C)[C@@H]1C/C=C1/C(=O)OC[C@H]1OC(=O)CCCCCCCCC
Two entries are listed, A and B . Which one carries the higher MIC? Give the label under which the chosen entry appears.
B
(B: 64 µg/mL, A: 16 µg/mL)

(a) C=C1CC[C@@H]2[C@](C)(CO)[C@H](O)CC[C@@]2(C)[C@@H]1C/C=C1/C(=O)OC[C@H]1OC(C)=O
(b) C=C1CC[C@@H]2[C@](C)(CO)[C@H](O)CC[C@@]2(C)[C@@H]1C/C=C1/C(=O)OC[C@H]1OC(=O)CC
For a and b , which recorded MIC is lower? Give the label under which the chosen entry appears.
b
